# subject of test: Alpha-2A adrenergic receptor (Homo sapiens, UniProt P08913)
# Sequence (P08913 whole entry): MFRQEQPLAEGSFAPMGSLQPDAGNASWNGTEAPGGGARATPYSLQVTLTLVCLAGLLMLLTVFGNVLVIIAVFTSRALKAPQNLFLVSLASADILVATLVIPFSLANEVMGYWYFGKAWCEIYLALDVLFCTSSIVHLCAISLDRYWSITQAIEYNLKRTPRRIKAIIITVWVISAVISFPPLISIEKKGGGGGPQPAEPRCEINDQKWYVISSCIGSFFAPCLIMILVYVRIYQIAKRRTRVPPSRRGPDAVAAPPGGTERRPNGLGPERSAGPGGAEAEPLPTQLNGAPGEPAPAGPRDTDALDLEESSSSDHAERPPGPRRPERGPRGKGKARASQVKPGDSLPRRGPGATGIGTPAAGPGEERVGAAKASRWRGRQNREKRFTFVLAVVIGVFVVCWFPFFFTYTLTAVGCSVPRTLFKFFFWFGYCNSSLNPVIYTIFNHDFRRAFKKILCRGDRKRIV

[
  {
    "item smiles": "COc1cc2c3c(c1OC)-c1ccccc1[C@@H](O)[C@@H]3NCC2",
    "subject of test": "Alpha-2A adrenergic receptor (Homo sapiens, UniProt P08913)",
    "Ki, nM": 1150
  }
]

----------
# subject of test: 5-hydroxytryptamine receptor 7 (Homo sapiens)
# Sequence (P34969 whole entry): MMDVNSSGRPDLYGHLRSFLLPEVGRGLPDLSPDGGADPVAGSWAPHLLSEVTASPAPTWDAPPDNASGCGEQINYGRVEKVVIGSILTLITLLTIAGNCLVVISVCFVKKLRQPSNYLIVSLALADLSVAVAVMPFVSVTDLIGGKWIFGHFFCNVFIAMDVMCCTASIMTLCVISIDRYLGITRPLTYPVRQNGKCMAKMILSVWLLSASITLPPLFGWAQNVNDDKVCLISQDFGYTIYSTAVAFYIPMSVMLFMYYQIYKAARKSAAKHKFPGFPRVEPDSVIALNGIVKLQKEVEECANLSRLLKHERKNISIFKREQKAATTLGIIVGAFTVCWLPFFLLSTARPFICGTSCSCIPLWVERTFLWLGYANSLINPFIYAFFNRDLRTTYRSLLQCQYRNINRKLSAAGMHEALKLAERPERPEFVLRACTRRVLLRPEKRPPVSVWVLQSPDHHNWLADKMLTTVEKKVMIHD
pKi: −log10 of the molar value.
property name: pKi

[
  {
    "item smiles": "COc1cc2c3c(c1OC)-c1ccccc1[C@@H](O)[C@@H]3NCC2",
    "subject of test": "5-hydroxytryptamine receptor 7 (Homo sapiens)",
    "property name": "pKi",
    "quantitative readout": 6.92
  }
]
